Let's go through some Ki measurements on Tyrosine-protein kinase BTK (Homo sapiens, UniProt Q06187) together.
Sequence (Q06187 whole entry): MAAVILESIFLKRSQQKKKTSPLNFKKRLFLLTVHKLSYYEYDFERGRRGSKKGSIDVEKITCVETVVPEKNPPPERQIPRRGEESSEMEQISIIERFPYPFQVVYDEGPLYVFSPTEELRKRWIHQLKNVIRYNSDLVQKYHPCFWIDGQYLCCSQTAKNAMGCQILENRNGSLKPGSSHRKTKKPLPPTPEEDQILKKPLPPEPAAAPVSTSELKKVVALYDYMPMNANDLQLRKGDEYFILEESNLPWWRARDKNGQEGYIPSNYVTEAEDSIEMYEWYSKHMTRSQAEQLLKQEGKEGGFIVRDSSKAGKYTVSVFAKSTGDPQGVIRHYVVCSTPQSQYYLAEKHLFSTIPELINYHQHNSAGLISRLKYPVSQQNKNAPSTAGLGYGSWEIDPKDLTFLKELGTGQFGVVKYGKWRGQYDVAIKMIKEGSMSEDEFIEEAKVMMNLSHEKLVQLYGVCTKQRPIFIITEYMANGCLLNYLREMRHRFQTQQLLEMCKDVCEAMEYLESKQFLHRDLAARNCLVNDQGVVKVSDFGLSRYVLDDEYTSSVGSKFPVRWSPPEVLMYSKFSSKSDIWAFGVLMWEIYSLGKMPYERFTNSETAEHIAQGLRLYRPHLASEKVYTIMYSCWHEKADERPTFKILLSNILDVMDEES
recordedMetric: Ki (nM)

* CC#CC(=O)NCCOc1cccc(Nc2cc(-c3ccnc(N4CCn5c(cc6c5CC(C)(C)C6)C4=O)c3CO)cn(C)c2=O)n1 | 2.37
* C=C(C#N)C(=O)NCCOc1cccc(Nc2cc(-c3ccnc(N4CCn5c(cc6c5CC(C)(C)C6)C4=O)c3CO)cn(C)c2=O)n1 | 1.7
* C=CC(=O)NCCNc1cccc(Nc2cc(-c3ccnc(N4CCn5c(cc6c5CC(C)(C)C6)C4=O)c3CO)cn(C)c2=O)n1 | 4.33
* C=CC(=O)NCCN(C)c1cccc(Nc2cc(-c3ccnc(N4CCn5c(cc6c5CC(C)(C)C6)C4=O)c3CO)cn(C)c2=O)n1 | 0.683
* C=CC(=O)N[C@H]1CCCN(c2cccc(Nc3cc(-c4ccnc(N5CCn6c(cc7c6CC(C)(C)C7)C5=O)c4CO)cn(C)c3=O)n2)C1 | 0.888
